Origin of values: paper PMC5306062

assay.procedure: Dog GLP 28-day repeat-dose study, intraperitoneal three times per week
Type: in vivo, beagle dogs
run.parameters: both sexes, beagle, dog, plasma, intraperitoneal; combined sexes, 10 mg/kg, Day 26; read-out: mean plasma AUClast
measured.endpoint: AUC(0-t) (ng·h/mL)
Expressed in ng·h/mL, but write only the number.

Need AUC(0-t) of `COc1cc([C@@H]2COc3c(ccc(O)c3C)[C@@H]2c2ccc(O)cc2)cc(OC)c1O` , thanks. 2310

====

assay.procedure: Dog 14-day pilot toxicity study with toxicokinetics, intraperitoneal
run.parameters: both, beagle, dog, plasma, ip, 100 mg/kg
measured.endpoint: Tmax

Need Tmax of `COc1cc([C@@H]2COc3c(ccc(O)c3C)[C@@H]2c2ccc(O)cc2)cc(OC)c1O` , thanks. 0.5 to 2 h
